Target: recombinant human ghrelin receptor (HEK293/GRLN) (Homo sapiens, UniProt Q92847)
Construct: expressed in transfected cells
Sequence (Q92847 whole entry): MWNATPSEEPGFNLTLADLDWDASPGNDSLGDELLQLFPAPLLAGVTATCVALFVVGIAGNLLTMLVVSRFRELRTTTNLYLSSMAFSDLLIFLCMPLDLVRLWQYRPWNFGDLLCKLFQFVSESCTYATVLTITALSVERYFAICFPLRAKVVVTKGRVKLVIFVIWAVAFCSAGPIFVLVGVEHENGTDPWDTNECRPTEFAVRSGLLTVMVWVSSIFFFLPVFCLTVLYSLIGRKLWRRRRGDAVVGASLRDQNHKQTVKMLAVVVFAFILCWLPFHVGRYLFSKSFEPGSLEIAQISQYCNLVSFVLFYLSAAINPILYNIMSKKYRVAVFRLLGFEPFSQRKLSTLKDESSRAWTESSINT
Experiment: Ghrelin inverse agonist potency (EC50) with IP-1 (IP-One HTRF) assay
Assay type: cell-based
Settings: IP-1 assay, HEK293/GRLN; read-out: Activity EC50 (ghrelin inverse agonist potency)
pEC50: −log10 of the molar value.
Mark TRUE for reported pEC50 of 8 or greater; mark FALSE for anything smaller.

# count of solved cases: 10
compound: CC(NC(=O)Nc1ccc(S(=O)(=O)Cc2ccc3c(c2)CN(C)C3)cc1F)c1ccccc1 (stereo not shown)
discrete-label: FALSE
//
compound: CN1CCc2cc(CS(=O)(=O)c3ccc(NC(=O)NCc4cccc(Cl)c4Cl)cc3)ccc2C1
discrete-label: FALSE
//
compound: CC(NC(=O)Nc1ccc(S(=O)(=O)Cc2ccc3c(c2)CNC3)cc1)c1ccc2c(c1)OCO2 (stereo not shown)
discrete-label: FALSE
//
compound: COc1cc(S(=O)(=O)Cc2ccc3c(c2)CCNC3)ccc1NC(=O)N(C)C(C)c1ccccc1 (stereo not shown)
discrete-label: FALSE
//
compound: CC(NC(=O)Nc1ccc(S(=O)(=O)Cc2cc3c(s2)CN(C)C3)cc1)c1ccccc1 (stereo not shown)
discrete-label: FALSE
//
compound: Cc1oc(=O)oc1COC(=O)N1Cc2ccc(CS(=O)(=O)c3ccc(NC(=O)NC(C)c4ccccc4)cc3)cc2C1 (stereo not shown)
discrete-label: FALSE
//
compound: CN1Cc2ccc(CS(=O)(=O)c3ccc(NC(=O)NC4CCCc5ccccc54)cc3)cc2C1 (stereo not shown)
discrete-label: FALSE
//
compound: COc1ccc(C(C)NC(=O)Nc2ccc(S(=O)(=O)Cc3ccc4c(c3)CN(C)C4)cc2)cc1OC (stereo not shown)
discrete-label: FALSE
//
compound: CC(c1ccccc1)N(C)C(=O)Nc1ccc(S(=O)(=O)Cc2ccc3c(c2)CCNC3)cc1F (stereo not shown)
discrete-label: FALSE
//
compound: CC(NC(=O)Nc1ccc(S(=O)(=O)Cc2ccc3c(c2)CCN(C)C3)cc1)c1ccccc1Cl (stereo not shown)
discrete-label: TRUE

Is pEC50 at least 8? Consider COc1cc(S(=O)(=O)Cc2ccc3c(c2)CNC3)ccc1NC(=O)NC(C)c1ccccc1F.O=C(O)C(F)(F)F (stereo not shown)
TRUE

Is pEC50 at least 8? Consider COc1cc(S(=O)(=O)Cc2ccc3c(c2)CCN(C)C3)ccc1NC(=O)NC(C)c1cccc(Cl)c1Cl (stereo not shown)
TRUE

Is pEC50 at least 8? Consider O=C(NCc1cccnc1)Nc1ccc(S(=O)(=O)Cc2ccc3c(c2)CNC3)cc1
FALSE

Is pEC50 at least 8? Consider CC(NC(=O)Nc1ccc(S(=O)(=O)Cc2ccc3c(c2)CN(C)C3)cc1)c1cccc2ccccc12 (stereo not shown)
TRUE

====

Please go through the items and note down their Metabolic Stability Study H = human.
Assay: Metabolic stability in human liver microsomes
Format: in vitro ADME
Give bare numbers, in µL/min/mg.

compound: C[C@H](NC(=O)Nc1ccc(S(=O)(=O)Cc2ccc3c(c2)CNC3)cc1)c1ccccc1
Metabolic Stability Study H = human [µL/min/mg]: 21

compound: C[C@@H](NC(=O)Nc1ccc(S(=O)(=O)Nc2ccc3c(c2)CN(C)C3)cc1)c1ccccc1
Metabolic Stability Study H = human [µL/min/mg]: 58.6

compound: C[C@@H](NC(=O)Nc1ccc(S(=O)(=O)Cc2ccc3c(c2F)CN(C)C3)cc1)c1ccccc1
Metabolic Stability Study H = human [µL/min/mg]: 140.1

Batch request: Metabolic Stability Study H = human for each of the following compounds.
1. C[C@@H](NC(=O)Nc1ccc(S(=O)(=O)Cc2ccc3c(c2)CN(C)C3)cc1)c1ccccc1 [H1356]
2. C[C@H](NC(=O)Nc1ccc(S(=O)(=O)Nc2ccc(CCO)cc2)cc1)c1cccc(Cl)c1Cl
3. CC(NC(=O)Nc1ccc(S(=O)(=O)Cc2ccc3c(c2)CCN(C)C3)cc1)c1cccc(F)c1F (stereo not shown)
4. CC(NC(=O)Nc1ccc(S(=O)(=O)Cc2ccc3c(c2)CCN(C)C3)cc1)c1ccccc1Cl (stereo not shown)
5. CC(NC(=O)Nc1ccc(S(=O)(=O)Cc2ccc3c(c2)CN(C)C3)cc1)c1cc(F)cc(F)c1 (stereo not shown)
6. CC(C)(N)Cc1ccc(CS(=O)(=O)c2ccc(NC(=O)NCc3cccc(Cl)c3Cl)cc2)cc1

1. 382.5
2. 55.1
3. 86.5
4. 53.5
5. 177.6
6. 27.5

Batch request: Metabolic Stability Study H = human for each of the following compounds.
1. Cc1oc(=O)oc1CN1CCc2cc(NS(=O)(=O)c3ccc(NC(=O)N[C@@H](C)c4cccc(Cl)c4Cl)cc3)ccc2C1
2. COCCN1Cc2ccc(CS(=O)(=O)c3ccc(NC(=O)NC(C)c4ccccc4)cc3)cc2C1 (stereo not shown)

[199.7, 106.9]

Batch request: Metabolic Stability Study H = human for each of the following compounds.
1. COc1cc(S(=O)(=O)Cc2ccc3c(c2)CN(C)C3)ccc1NC(=O)NC(C)c1ccccc1F (stereo not shown)
2. C[C@H](NC(=O)Nc1ccc(S(=O)(=O)Nc2ccc(CC(C)(C)O)cc2)cc1)c1cccc(Cl)c1Cl

77.3
91.4

====

Assay: Plasma protein binding (PPB), human
Format: in vitro ADME
Conditions: read-out: PPB (H)
Mark rule met for reported fraction unbound of 0.001 or greater; mark rule not met for anything smaller.

# count of solved cases: 3
molecule: Cl.O=C(NCc1cccc(Cl)c1Cl)Nc1ccc(S(=O)(=O)Cc2ccc3c(c2)CNC3)cc1
discrete-label: rule met
//
molecule: C[C@H](NC(=O)Nc1ccc(S(=O)(=O)Cc2ccc3c(c2)CCN(C)C3)cc1)c1cccc(Cl)c1Cl
discrete-label: rule met
//
molecule: CNC(C)(C)Cc1ccc(NS(=O)(=O)c2ccc(NC(=O)N[C@@H](C)c3ccc(-c4cnccn4)c(Cl)c3Cl)cc2)cc1
discrete-label: rule not met

Is fraction unbound at least 0.001? Consider C[C@H](NC(=O)Nc1ccc(S(=O)(=O)Nc2ccc(CC(C)(C)N)cc2)cc1)c1ccc(-c2cnccn2)c(Cl)c1Cl
rule met

Is fraction unbound at least 0.001? Consider CC(NC(=O)Nc1ccc(S(=O)(=O)Cc2ccc3c(c2)CNC3)cc1)c1ccccc1.Cl (stereo not drawn)
rule met

====

Test: Metabolic stability in human liver microsomes
Format: in vitro ADME
reported-property: Metabolic Stability Study H = human (µL/min/mg)
One number for each entry, in µL/min/mg.

Some solved cases for reference:
compound: CN1Cc2ccc(CS(=O)(=O)c3ccc(NC(=O)NC4CCCc5ccccc54)cc3)cc2C1 (stereo not shown) [H1312]
unit-of-measurement: µL/min/mg
Metabolic Stability Study H = human: 93.5
--
compound: CC(NC(=O)Nc1ccc(S(=O)(=O)Cc2cc3c(s2)CN(C)CC3)cc1)c1cccc(Cl)c1Cl (stereo not shown) [H1384]
unit-of-measurement: µL/min/mg
Metabolic Stability Study H = human: 95.1
--
compound: C[C@H](NC(=O)Nc1ccc(S(=O)(=O)Nc2ccc(N)cn2)cc1)c1cccc(Cl)c1Cl.Cl [H1127]
unit-of-measurement: µL/min/mg
Metabolic Stability Study H = human: 41
--
compound: CC(NC(=O)Nc1ccc(S(=O)(=O)Cc2ccc3c(c2)CNC3)cc1)c1ccccc1F (stereo not shown) [H1272]
unit-of-measurement: µL/min/mg
Metabolic Stability Study H = human: 18.4

Batch request: Metabolic Stability Study H = human for each of the following compounds.
1. C[C@@H](NC(=O)Nc1ccc(S(=O)(=O)Cc2ccc3c(c2)CN(C)C3)cc1)c1ccccc1 [H1300]
2. Cl.O=C(NCc1ccccc1)Nc1ccc(S(=O)(=O)Cc2ccc3c(c2)CNC3)cc1 [H1179]
3. CC(C)(N)Cc1ccc(NS(=O)(=O)c2ccc(NC(=O)NCc3cccc(Cl)c3Cl)cc2)cc1 [H0968]
4. CCC(NC(=O)Nc1ccc(S(=O)(=O)Cc2ccc3c(c2)CN(C)C3)cc1)c1ccccc1 (stereo not shown) [H1235]
5. COc1cc(S(=O)(=O)Cc2ccc3c(c2)CN(C)C3)ccc1NC(=O)NC(C)c1cccc(Cl)c1Cl (stereo not shown) [H1427]

[124.3, 14.9, 32.5, 102.4, 58.8]

Batch request: Metabolic Stability Study H = human for each of the following compounds.
1. C[C@H](NC(=O)Nc1ccc(S(=O)(=O)Cc2ccc3c(c2)CCNCC3)cc1)c1ccccc1 [H1306]
2. C[C@H](NC(=O)Nc1ccc(S(=O)(=O)Nc2ccc(CO)cc2)cc1)c1cccc(Cl)c1Cl [H1062]

31.2
32.4

====

Biological target: GHSR-1a (HEK293/GHSR1a cell line) (Homo sapiens, UniProt Q92847)
Construct: expressed in transfected cells; host or cells: HEK293/GHSR1a cell line
Sequence (Q92847 whole entry): as above
Experiment: Ghrelin antagonist potency (IC50) with calcium FLIPR assay, ghrelin 10 nM
Type: cell-based
Details: HEK293/GHSR1a, ghrelin 10 nM, read-out: Activity IC50 (ghrelin antagonist potency)
Please go through the items and note down their log10 IC50.
log10 IC50, µM

Some solved cases for reference:
compound: CCN(CC)Cc1ccc(CS(=O)(=O)c2ccc(NC(=O)NC(C)c3ccccc3)cc2)cc1 (centres unmarked)
reading: -0.84

compound: CC(=O)Oc1ccc(C(C)NC(=O)Nc2ccc(S(=O)(=O)Cc3ccc4c(c3)CNC4)cc2)cc1 (centres unmarked)
reading: -0.58

compound: C[C@H](NC(=O)Nc1ccc2c(c1)CC(c1ccc3c(c1)CNC3)S2(=O)=O)c1ccccc1 (some centres unmarked)
reading: -2.36

compound: COc1ccc(C(C)NC(=O)Nc2ccc(S(=O)(=O)Cc3ccc4c(c3)CCN(C)C4)cc2OC)cc1 (centres unmarked)
reading: -1.24

Batch request: log10 IC50 for each of the following compounds.
1. CC(NC(=O)Nc1ccc(S(=O)(=O)CC2CCC(NCC3CC3)CC2)cc1)c1cccc(Cl)c1Cl (centres unmarked)
2. Cc1oc(=O)oc1COC(=O)N1Cc2ccc(CS(=O)(=O)c3ccc(NC(=O)NC(C)c4ccccc4)cc3)cc2C1 (centres unmarked)
3. CC(NC(=O)Nc1ccc(S(=O)(=O)CC2CCCN(C(C)C)C2)cc1)c1cccc(Cl)c1Cl (centres unmarked)
4. COc1ccccc1C(C)NC(=O)Nc1ccc(S(=O)(=O)Cc2ccc3c(c2)CNC3)cc1 (centres unmarked)
5. CC1c2ccccc2CCN1C(=O)Nc1ccc(S(=O)(=O)Cc2ccc3c(c2)CN(C)C3)cc1 (centres unmarked)

1. 0.39
2. -1.05
3. 0.84
4. -1.46
5. 0.43

Batch request: log10 IC50 for each of the following compounds.
1. COc1ccc(C(C)NC(=O)Nc2ccc(S(=O)(=O)Cc3ccc4c(c3)CNC4)cc2)cc1 (centres unmarked)
2. CC(=O)N1CC(NC(=O)Nc2ccc(S(=O)(=O)Cc3ccc4c(c3)CNC4)cc2)c2ccccc21 (centres unmarked)
3. CC(NC(=O)Nc1ccc(S(=O)(=O)Cc2ccc3c(c2)CN(C)C3)cc1)c1cc(N2CCOCC2)ccc1Cl (centres unmarked)
4. CN1Cc2ccc(CS(=O)(=O)c3ccc(NC(=O)NC4COc5ccccc54)cc3)cc2C1 (centres unmarked)
5. CC(=O)N1CC(NC(=O)Nc2ccc(S(=O)(=O)Cc3ccc4c(c3)CN(C)C4)cc2)c2ccccc21 (centres unmarked)
6. C[C@H](NC(=O)Nc1ccc(S(=O)(=O)Cc2ccc(CN3CCC(O)C3)cc2)cc1)c1ccccc1 (some centres unmarked)
7. CC(NC(=O)Nc1ccc(S(=O)(=O)Cc2cc3c(s2)CN(C)CC3)cc1)c1cccc(Cl)c1Cl (centres unmarked)

1. -0.30
2. 0.71
3. 0.28
4. -0.67
5. 0.95
6. 0.16
7. -2.23

Batch request: log10 IC50 for each of the following compounds.
1. CC(NC(=O)Nc1ccc(S(=O)(=O)Cc2ccc3c(c2)CCN(C)C3)cc1)c1ccccc1F (centres unmarked)
2. CC(NC(=O)Nc1ccc(S(=O)(=O)Cc2ccc3c(c2)CC(C)N(C)C3)cc1)c1ccccc1 (centres unmarked)
3. CC(NC(=O)Nc1ccc(S(=O)(=O)Cc2ccc3c(c2)CN(C)C3)cc1F)c1ccccc1 (centres unmarked)
4. CC(NC(=O)Nc1ccc(S(=O)(=O)Nc2ccc3c(c2)CCN(C)C3)cc1)c1ccccc1F (centres unmarked)
5. COc1cc(S(=O)(=O)Cc2ccc3c(c2)CCN(C)C3)ccc1NC(=O)N[C@H](C)c1ccc(OC)c(Cl)c1Cl
6. CC(NC(=O)Nc1ccc(S(=O)(=O)Cc2ccc3c(c2)CN(C)C3)cc1)c1cccc(Cl)c1 (centres unmarked)
7. CC(NC(=O)Nc1ccc(S(=O)(=O)Cc2ccc3c(c2)C[N+](C)([O-])C3)cc1)c1ccccc1 (centres unmarked)

1. -1.76
2. -1.90
3. -1.32
4. -1.58
5. -1.53
6. -1.62
7. 1.26

// data source = patent US10501479B2
